pIC50: −log10 of the molar value.
Consider the following pIC50 values measured on PARP (Homo sapiens, UniProt P09874).
Sequence (P09874 whole entry): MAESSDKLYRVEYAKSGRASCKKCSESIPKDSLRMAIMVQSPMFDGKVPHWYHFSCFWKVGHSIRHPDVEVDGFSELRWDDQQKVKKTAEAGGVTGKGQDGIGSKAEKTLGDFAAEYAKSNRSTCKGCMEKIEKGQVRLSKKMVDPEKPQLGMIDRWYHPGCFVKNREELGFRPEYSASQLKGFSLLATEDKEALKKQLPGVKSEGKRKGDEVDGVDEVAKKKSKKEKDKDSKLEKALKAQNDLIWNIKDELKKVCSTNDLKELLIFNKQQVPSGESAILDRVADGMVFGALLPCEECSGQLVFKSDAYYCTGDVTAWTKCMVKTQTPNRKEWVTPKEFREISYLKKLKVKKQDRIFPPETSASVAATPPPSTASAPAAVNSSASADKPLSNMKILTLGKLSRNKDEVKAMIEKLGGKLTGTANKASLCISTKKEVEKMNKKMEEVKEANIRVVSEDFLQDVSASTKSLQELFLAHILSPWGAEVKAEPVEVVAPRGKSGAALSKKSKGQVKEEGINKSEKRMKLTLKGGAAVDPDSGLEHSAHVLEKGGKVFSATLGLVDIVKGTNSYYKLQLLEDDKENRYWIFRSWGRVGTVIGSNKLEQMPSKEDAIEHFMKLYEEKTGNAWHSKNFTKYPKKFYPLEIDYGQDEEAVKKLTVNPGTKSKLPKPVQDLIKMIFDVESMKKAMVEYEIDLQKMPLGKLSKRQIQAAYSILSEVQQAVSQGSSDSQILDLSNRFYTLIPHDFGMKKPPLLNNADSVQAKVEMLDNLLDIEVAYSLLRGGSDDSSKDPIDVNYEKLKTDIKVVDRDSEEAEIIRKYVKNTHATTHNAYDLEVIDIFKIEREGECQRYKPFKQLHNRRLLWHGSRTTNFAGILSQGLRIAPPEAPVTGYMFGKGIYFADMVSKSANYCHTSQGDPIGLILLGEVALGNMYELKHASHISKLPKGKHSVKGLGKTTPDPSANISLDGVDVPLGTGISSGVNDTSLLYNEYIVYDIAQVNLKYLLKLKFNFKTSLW

| compound | system tested | pIC50 |
| --- | --- | --- |
| CNC(=O)c1ccc(N2CCN(Cc3cc(F)c4c(c3)NC(=O)C(C)O4)CC2)nc1 (centres unmarked) | PARP (Homo sapiens, UniProt P09874) | 7.50 |
| CCCc1cc(CN2CCN(c3ccc(C(=O)NC)cc3)CC2)cc2c1OC(C)C(=O)N2 (centres unmarked) | PARP (Homo sapiens, UniProt P09874) | < 6.70 |
| CCC1Oc2ccc(CN3CCN(c4ccccc4O)CC3)cc2NC1=O (centres unmarked) | PARP (Homo sapiens, UniProt P09874) | ≤ 6.90 |
| CCNC(=O)c1ccc(N2CCN(Cc3cc4c(c(OC)c3)OC(C)C(=O)N4)CC2)c(F)c1 (centres unmarked) | PARP (Homo sapiens, UniProt P09874) | 7.40 |

Ask: // lookup pIC50 for CC1Oc2ccc(Cn3cc4ccccc4n3)cc2NC1=O (centres unmarked)
Reply: < 6.70

Ask: Query CC1Oc2c(F)cc(CN3CC=C(c4ccc(Cl)cc4)CC3)cc2NC1=O (centres unmarked) next
Reply: ≤ 6.90

Ask: Query "CCNC(=O)c1ccc(N2CCN(Cc3ccc4c(c3)NC(=O)[C@@H](C)O4)CC2)cc1" next
Reply: ≥ 7.50

Ask: Follow-up entry: CCNC(=O)c1ccc(N2CCN(Cc3ccc4c(c3)NC(=O)C(C)O4)CC2)cc1 (centres unmarked)
Reply: ≥ 7.50
